# System: Huh7 (human liver cancer cell)
# testMethodNotes: MTT growth inhibition of human solid tumor cells, 72 h
# Type: cell-based
# experimentalSetup: Homo sapiens, Huh-7
valueType: IC90 (µg/mL)
Form entry: value (µg/mL) — number only.

Memo: COC(=O)C[C@](O)(CCCC(C)(C)OC(=O)C1CCCC1)C(=O)O[C@@H]1C(OC)=C[C@]23CCCN2CCc2cc4c(cc2[C@H]13)OCO4 [BS-HH-077] , reported IC90: 0.36

Memo: COC(=O)C[C@](O)(CCCC(C)(C)OC(C)=O)C(=O)O[C@@H]1C(OC)=C[C@]23CCCN2CCc2cc4c(cc2[C@H]13)OCO4 [BS-HH-002, 6-acetylhomoharringtonine] , reported IC90: 0.018

Memo: COC(=O)C[C@@](CCCC(C)(C)OC(C)=O)(OC(C)=O)C(=O)O[C@@H]1C(OC)=C[C@]23CCCN2CCc2cc4c(cc2[C@H]13)OCO4 [BS-HH-001, 2,6-diacetylhomoharringtonine] , reported IC90: 0.13

Memo: COC(=O)C[C@](O)(CCCC(C)(C)OC(=O)Cc1ccccc1)C(=O)O[C@@H]1C(OC)=C[C@]23CCCN2CCc2cc4c(cc2[C@H]13)OCO4 [BS-HH-074] , reported IC90: 0.05

Memo: COC(=O)C[C@](O)(CCCC(C)(C)OC(=O)C1CC1)C(=O)O[C@@H]1C(OC)=C[C@]23CCCN2CCc2cc4c(cc2[C@H]13)OCO4 [BS-HH-062] , reported IC90: 0.049

Values were extracted from patent US9428519B2.
